assay.system: α7–GlyR mutant chimeric channels (Homo sapiens, UniProt P36544, Q139G)
Sequence (P36544 23-230 Q139G): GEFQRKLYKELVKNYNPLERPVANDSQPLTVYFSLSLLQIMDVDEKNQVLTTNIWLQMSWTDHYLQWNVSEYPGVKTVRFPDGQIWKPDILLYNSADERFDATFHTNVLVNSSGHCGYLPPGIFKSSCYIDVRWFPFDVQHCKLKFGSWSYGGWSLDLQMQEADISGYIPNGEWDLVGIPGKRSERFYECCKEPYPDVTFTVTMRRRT
Sequence (P23415 248-457 partner): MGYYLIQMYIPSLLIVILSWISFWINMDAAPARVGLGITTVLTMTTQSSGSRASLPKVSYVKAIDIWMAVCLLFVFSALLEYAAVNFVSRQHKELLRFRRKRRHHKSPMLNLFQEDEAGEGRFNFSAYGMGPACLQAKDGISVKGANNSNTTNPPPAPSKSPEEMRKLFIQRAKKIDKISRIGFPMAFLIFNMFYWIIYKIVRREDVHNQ
assay: Membrane potential assay screen, mutant α7–GlyR chimeric channels
Format: cell-based
assay.conditions: EC50 at α7 GlyR Q139G, Avg, sheet 1d
parameter: EC50

Given COC(=O)[C@H]1[C@@H](OC(=O)c2ccccc2)C[C@@H]2CC[C@H]1N2C , state its recorded EC50.
> 30 µM

###

assay.system: α7–5HT3 mutant chimeric channels (Homo sapiens, UniProt P36544, Q139A)
Sequence (P23979 242-489): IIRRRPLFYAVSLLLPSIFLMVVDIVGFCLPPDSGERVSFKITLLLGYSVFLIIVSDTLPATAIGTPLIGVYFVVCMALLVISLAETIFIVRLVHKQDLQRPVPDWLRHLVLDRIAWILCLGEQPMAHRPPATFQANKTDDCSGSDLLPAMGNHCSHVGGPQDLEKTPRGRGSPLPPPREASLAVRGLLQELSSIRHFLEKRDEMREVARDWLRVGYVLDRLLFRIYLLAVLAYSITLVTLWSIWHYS
Sequence (P36544 23-224 Q139A): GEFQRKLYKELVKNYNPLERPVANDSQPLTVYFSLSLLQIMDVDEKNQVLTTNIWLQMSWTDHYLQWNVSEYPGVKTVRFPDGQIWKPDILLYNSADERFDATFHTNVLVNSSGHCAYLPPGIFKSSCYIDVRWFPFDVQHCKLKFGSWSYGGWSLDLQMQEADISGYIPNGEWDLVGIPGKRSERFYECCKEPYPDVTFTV
assay: cell-based
Type: cell-based, human α7 nAChR LBD, mouse 5HT3 IPD
assay.conditions: read-out: EC50 at a7 5HT3 Q139A, Avg; sheet 1d; Avg
pEC50: −log10 of the molar value.
parameter: pEC50

What measured pEC50 is associated with COC(=O)[C@H]1[C@@H](OC(=O)c2ccccc2)C[C@@H]2CC[C@H]1N2C [cocaine] on α7–5HT3 mutant chimeric channels (Homo sapiens, UniProt P36544, Q139A)?
< 4.52
